Test system: Zymoseptoria tritici (SEPTTR-184)
Assay Explanation: Efficacy of target gene fragments (MgCytB dsRNA tiles) on wheat plants, SEPTTR-184
Format: in vivo
Setup Conditions: 3DC (curative); average of 200, 50, 12.5, 3.125 ppm
Protocol: The 200 ppm rate for each treatment was prepared by adding the calculated volume of the corresponding dsRNA solution in TE buffer. Lower rates were prepared as 4-fold dilutions (50 ppm, 12.5 ppm, and 3.12 ppm). A non-target dsRNA control (YFP), a TE/phosphate buffer control, disease pressure control, and clean plant control were included. These plants were inoculated with an aqueous spore suspension of Zymoseptoria tritici either prior to or after fungicidal treatments. […]
Measurement Kind: Disease Control All Rates Average SEPTTR-184 3DC (%)

MgCytB-T4: 219 bp dsRNA of Zymoseptoria CytB region T4, location 1-219 (SEQ ID NO:7) (nucleic acid, listed as Zymoseptoria tritici, complementary strand of dsRNA) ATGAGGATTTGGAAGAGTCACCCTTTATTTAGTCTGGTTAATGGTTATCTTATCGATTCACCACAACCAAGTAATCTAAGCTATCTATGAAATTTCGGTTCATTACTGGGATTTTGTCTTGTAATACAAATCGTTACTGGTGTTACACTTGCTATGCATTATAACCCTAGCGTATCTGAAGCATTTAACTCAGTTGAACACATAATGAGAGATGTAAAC; 79
